Source listed as ChEMBL document CHEMBL1134388.

assay-target: Gastrin/cholecystokinin type B receptor (Mus musculus) (UniProt P56481)
test-description: Antagonistic activity against CCK2 receptor in mouse cortex assay using [125 I]-BH-CCK-8S
Type: functional, tissue-based
assay-readout: pKB
Number only, please.

Before answering, review these 2 worked examples.
CCCCn1ccc2cc(C(=O)N[C@@H](Cc3ccccc3)C(=O)Nc3cc(C(=O)O)cc(C(=O)O)c3)c(C(=O)NCC34CC5CC(CC(C5)C3)C4)cc21 | 8.44
O=C(O)c1cc(NC(=O)[C@H](Cc2ccccc2)NC(=O)c2cc3[nH]ccc3cc2C(=O)NCC23CC4CC(CC(C4)C2)C3)cc(C(=O)O)c1 | 7.87

Would you kindly look at the next entry?
[Q] Entry O=C(O)c1cc(NC(=O)[C@H](Cc2ccccc2)NC(=O)c2cc3cc[nH]c3cc2C(=O)NCC23CC4CC(CC(C4)C2)C3)cc(C(=O)O)c1 : reported pKB = ?
[A] 8.96

* * *

assay-target: Gastrin/cholecystokinin type B receptor (Mus musculus) (UniProt P56481)
Sequence (whole entry): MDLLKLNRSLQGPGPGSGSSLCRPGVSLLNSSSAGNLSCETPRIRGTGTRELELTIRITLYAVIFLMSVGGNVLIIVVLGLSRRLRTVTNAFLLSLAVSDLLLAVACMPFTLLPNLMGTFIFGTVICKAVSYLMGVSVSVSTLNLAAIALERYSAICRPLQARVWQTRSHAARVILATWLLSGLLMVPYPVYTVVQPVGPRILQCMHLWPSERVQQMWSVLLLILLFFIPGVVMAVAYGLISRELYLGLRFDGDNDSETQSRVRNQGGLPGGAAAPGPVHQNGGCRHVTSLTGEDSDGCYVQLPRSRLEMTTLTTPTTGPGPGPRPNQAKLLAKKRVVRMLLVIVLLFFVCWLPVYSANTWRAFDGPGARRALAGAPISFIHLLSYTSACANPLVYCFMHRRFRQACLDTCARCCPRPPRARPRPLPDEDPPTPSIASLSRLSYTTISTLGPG
test-description: Antagonistic activity against CCK2 receptor in mouse cortex assay using [125 I]-BH-CCK-8S
Format: functional, tissue-based
assay-readout: pKB

CC(=O)n1ccc2cc(C(=O)N[C@@H](Cc3ccccc3)C(=O)Nc3cc(C(=O)O)cc(C(=O)O)c3)c(C(=O)NCC34CC5CC(CC(C5)C3)C4)cc21 | 8.74

[Q] Entry Cn1cnc2cc(C(=O)N[C@@H](Cc3ccccc3)C(=O)Nc3cc(C(=O)O)cc(C(=O)O)c3)c(C(=O)NCC34CC5CC(CC(C5)C3)C4)cc21 : reported pKB = ?
[A] 7.6

[Q] Entry Cn1ccc2cc(C(=O)N[C@@H](Cc3ccccc3)C(=O)Nc3cc(C(=O)O)cc(C(=O)O)c3)c(C(=O)NCC34CC5CC(CC(C5)C3)C4)cc21 (stereo in doubt; 4) : reported pKB = ?
[A] 9.43

* * *

assay-target: Gastrin/cholecystokinin type B receptor (Rattus norvegicus)
test-description: Antagonistic activity against CCK2 receptor in rat stomach
Assay type: functional, tissue-based
assay-readout: pKB
Number only, please.

Before answering, review these 3 worked examples.
CC(=O)n1ccc2cc(C(=O)N[C@@H](Cc3ccccc3)C(=O)Nc3cc(C(=O)O)cc(C(=O)O)c3)c(C(=O)NCC34CC5CC(CC(C5)C3)C4)cc21 | 8.72
Cn1ccc2cc(C(=O)N[C@@H](Cc3ccccc3)C(=O)Nc3cc(C(=O)O)cc(C(=O)O)c3)c(C(=O)NCC34CC5CC(CC(C5)C3)C4)cc21 (stereo in doubt; 3) | 9.8
O=C(O)c1cc(NC(=O)[C@H](Cc2ccccc2)NC(=O)c2cc3[nH]ccc3cc2C(=O)NCC23CC4CC(CC(C4)C2)C3)cc(C(=O)O)c1 | 9.26

[Q] Write down the reported pKB of CCCCn1ccc2cc(C(=O)N[C@@H](Cc3ccccc3)C(=O)Nc3cc(C(=O)O)cc(C(=O)O)c3)c(C(=O)NCC34CC5CC(CC(C5)C3)C4)cc21 , test system: Gastrin/cholecystokinin type B receptor (Rattus norvegicus).
[A] 7.35
